System: S. aureus
Format: cell-based, Staphylococcus aureus (NBRC100910)
Experimental Conditions: S. aureus; Muller-Hinton II medium mixed 1:1 with peptide in 10 mM phosphate buffer pH 6.0, 130 mM NaCl, 0.2% BSA, 2.56% DMSO; one day at 37 °C; growth monitored optically
No end group written: not given here.
Readout Name: MIC

See these solved cases before continuing.
{"columns": ["Substance", "Target Entity", "Readout Name", "Obs Value"],
 "data": [
  ["KLKLLLKLK-NH2 [L-form KLKLLLKLK-NH2]", "S. aureus", "MIC", ">128 µg/mL"],
  ["INLKAIAALAKKLL-NH2 [L-form INLKAIAALAKKLL-NH2, reference compound]", "S. aureus", "MIC", "16 µg/mL"],
  ["FLPLIGRVLSGIL-NH2 [L-form FLPLIGRVLSGIL-NH2, reference compound]", "S. aureus", "MIC", "8 µg/mL"]
]}

Kindly review the next substance as well.
Tell me reported MIC for FIKRIARLLRKIF-NH2 [L-form FIKRIARLLRKIF-NH2, reference compound] , tested with S. aureus. 4 µg/mL
